system under test: dihydrolipoamide acyltransferase (DlaT) (Mycobacterium tuberculosis, UniProt P9WIS7)
Sequence (P9WIS7 whole entry): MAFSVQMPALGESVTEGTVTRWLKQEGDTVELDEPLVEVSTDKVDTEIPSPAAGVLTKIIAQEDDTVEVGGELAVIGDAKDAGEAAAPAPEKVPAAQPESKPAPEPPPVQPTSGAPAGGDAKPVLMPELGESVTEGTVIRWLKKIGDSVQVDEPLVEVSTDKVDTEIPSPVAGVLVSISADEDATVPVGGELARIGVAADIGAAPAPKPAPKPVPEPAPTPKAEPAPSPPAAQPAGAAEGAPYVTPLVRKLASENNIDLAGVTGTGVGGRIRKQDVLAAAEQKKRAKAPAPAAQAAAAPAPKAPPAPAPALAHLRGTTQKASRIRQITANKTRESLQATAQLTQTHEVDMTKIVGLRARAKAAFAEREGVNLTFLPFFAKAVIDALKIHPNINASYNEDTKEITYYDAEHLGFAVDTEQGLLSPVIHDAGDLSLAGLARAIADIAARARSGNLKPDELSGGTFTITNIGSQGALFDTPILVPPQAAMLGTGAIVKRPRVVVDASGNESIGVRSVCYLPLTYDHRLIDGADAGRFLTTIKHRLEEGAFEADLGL
protocol: DlaT inhibition (Dlat IC50); DTNB peroxidase assay with Lpd, DlaT and AhpD
Type: biochemical
applied conditions: Table 20, Prodrugs (Compounds T1 to T8); read-out: Dlat IC50 category
pIC50: −log10 of the molar value.
readout label: pIC50

>>> result("CC(CO)(CO)COC(=O)c1cccc(N2C(=O)C(=Cc3ccc(-c4ccccc4Cl)o3)SC2=S)c1")
"4.40 to 4.96"

----------
system under test: dihydrolipoamide acyltransferase (DlaT) (Mycobacterium tuberculosis, UniProt P9WIS7)
protocol: DlaT inhibition (Dlat IC50); DTNB peroxidase assay with Lpd, DlaT and AhpD
Type: biochemical
applied conditions: Dlat IC50 category
readout label: IC50

>>> result("CS(=O)(=O)c1ccc(-c2ccc(C=C3SC(=S)N(C4CCC(C(=O)O)CC4)C3=O)o2)cc1 (centres unmarked) [Compound C59]")
"< 10 µM"
>>> result("CC(C)C(C(=O)O)N1C(=O)C(=Cc2ccc(-c3ccc(F)cc3)o2)SC1=S (centres unmarked) [Compound B107]")
"11 to 40 µM"
>>> result("O=C(O)CCCCCN1C(=O)C(=Cc2ccc(-c3ccccc3C(F)(F)F)o2)SC1=S [Compound B23]")
"11 to 40 µM"
>>> result("O=C(O)C1CCCC(N2C(=O)C(=Cc3ccc(-c4ccccc4Oc4ccccc4)o3)SC2=S)C1 (centres unmarked) [Compound C34]")
"< 10 µM"
>>> result("Cc1ccccc1-c1ccc(C=C2SC(=S)N(Nc3ccccc3C(=O)O)C2=O)s1 [Compound D34]")
"< 10 µM"
>>> result("O=C(O)C(Cc1ccccc1)N1C(=O)C(=Cc2ccc(-c3ccc(CSc4ccccc4)cc3)o2)SC1=S (centres unmarked) [Compound B76]")
"< 10 µM"
>>> result("O=C(O)C1CCC(N2C(=O)C(=Cc3ccc(-c4ccccc4F)o3)SC2=S)CC1 (centres unmarked) [Compound C44]")
"< 10 µM"
>>> result("CSc1cccc(-c2ccc(C=C3SC(=S)N(C4CCCC(C(=O)O)C4)C3=O)o2)c1 (centres unmarked) [Compound C62]")
"< 10 µM"
>>> result("Cc1ccccc1-c1ccc(C=C2SC(=S)N(C(C(=O)O)C(C)C)C2=O)o1 (centres unmarked) [Compound B106]")
"11 to 40 µM"
>>> result("O=C(O)C(Cc1ccccc1)N1C(=O)C(=Cc2ccc(-c3cccc(C(F)(F)F)c3)o2)SC1=S (centres unmarked) [Compound B40]")
"< 10 µM"
>>> result("O=C(O)CCN1C(=O)C(=Cc2ccc(-c3ccccc3Cl)o2)SC1=S [Compound B5]")
"11 to 40 µM"
>>> result("O=C(O)C(c1ccccc1)N1C(=O)C(=Cc2cc(-c3cccc(C(F)(F)F)c3)co2)SC1=S (centres unmarked) [Compound B38]")
"< 10 µM"
>>> result("O=C(O)CCCCCN1C(=O)C(=Cc2ccc(-c3ccc(Cc4ccccc4)cc3)o2)SC1=S [Compound B33]")
"11 to 40 µM"
>>> result("O=C(O)C1CCC(N2C(=O)C(=Cc3ccc(-c4ccccc4Cl)o3)SC2=S)CC1 (centres unmarked) [Compound C16]")
"< 10 µM"
>>> result("O=C(O)CCCCCN1C(=O)C(=Cc2ccc(-c3ccccc3OC(F)(F)F)o2)SC1=S [Compound B24]")
"< 10 µM"
>>> result("COc1ccc(-c2ccc(C=C3SC(=S)N(C4CCC(C(=O)O)CC4)C3=O)o2)cc1F (centres unmarked) [Compound C53]")
"< 10 µM"
>>> result("CS(=O)(=O)c1ccc(-c2ccc(C=C3SC(=S)N(CCCC(=O)O)C3=O)o2)cc1 [Compound B93]")
"11 to 40 µM"
>>> result("O=C(O)C(Cc1ccc(O)cc1)N1C(=O)C(=Cc2ccc(-c3cc(C(F)(F)F)ccc3Cl)o2)SC1=S (centres unmarked) [Compound B63]")
"< 10 µM"
>>> result("COc1cc(F)ccc1-c1ccc(C=C2SC(=S)N(Nc3ccccc3C(=O)O)C2=O)o1 [Compound D25]")
"< 10 µM"
>>> result("CCOc1ccc(-c2ccc(C=C3SC(=S)N(C4CCC(C(=O)O)CC4)C3=O)o2)cc1 (centres unmarked) [Compound C52]")
"< 10 µM"
>>> result("O=C(O)C1CCCC(N2C(=O)C(=Cc3ccc(-c4ccc(F)cc4F)o3)SC2=S)C1 (centres unmarked) [Compound C7]")
"< 10 µM"
>>> result("COc1ccc(-c2ccc(C=C3SC(=S)N(C(C)C(=O)O)C3=O)o2)cc1Cl (centres unmarked) [Compound B113]")
"< 10 µM"
>>> result("O=C(O)C1CCCC(N2C(=O)C(=Cc3ccc(-c4ccccc4O)o3)SC2=S)C1 (centres unmarked) [Compound C13]")
"< 10 µM"
>>> result("CSc1ccccc1-c1ccc(C=C2SC(=S)N(C3CCCC(C(=O)O)C3)C2=O)o1 (centres unmarked) [Compound C30]")
"< 10 µM"
>>> result("O=C(O)C(Cc1ccc(O)c(O)c1)N1C(=O)C(=Cc2ccc(-c3ccc(Cc4ccccc4)cc3)o2)SC1=S (centres unmarked) [Compound B59]")
"< 10 µM"
>>> result("COc1ccc(C)cc1-c1ccc(C=C2SC(=S)N(C3CCCC(C(=O)O)C3)C2=O)o1 (centres unmarked) [Compound C74]")
"11 to 40 µM"
>>> result("Cc1ccccc1-c1ccc(C=C2SC(=S)N(C3CCCC(C(=O)O)C3)C2=O)s1 (centres unmarked) [Compound C31]")
"11 to 40 µM"
>>> result("O=C(O)CN1C(=O)C(=Cc2ccc(-c3ccc(C4CCCCC4)cc3)o2)SC1=S [Compound B73]")
"< 10 µM"
>>> result("CC(C)c1cccc(-c2ccc(C=C3SC(=S)N(CC(=O)O)C3=O)o2)c1 [Compound B72]")
"< 10 µM"
>>> result("CCc1ccccc1-c1ccc(C=C2SC(=S)N(Nc3ccccc3C(=O)O)C2=O)o1 [Compound D58]")
"< 10 µM"
>>> result("COc1cc(F)ccc1-c1ccc(C=C2SC(=S)N(C3CCCC(C(=O)O)C3)C2=O)o1 (centres unmarked) [Compound C25]")
"< 10 µM"
>>> result("O=C(O)C1CCCC(N2C(=O)C(=Cc3ccc(-c4ccc(Cc5ccccc5)cc4)o3)SC2=S)C1 (centres unmarked) [Compound C6]")
"< 10 µM"
